biological target: bovine serum albumine (Bos taurus, UniProt P02769); experiment: Inhibition of furosine formation (non-enzymatic glycosylation of BSA by glucose, furosine determined by HPLC); settings: 672 h, pH 7.3, read-out: Inhibition rate (%)
Sequence (P02769 25-607): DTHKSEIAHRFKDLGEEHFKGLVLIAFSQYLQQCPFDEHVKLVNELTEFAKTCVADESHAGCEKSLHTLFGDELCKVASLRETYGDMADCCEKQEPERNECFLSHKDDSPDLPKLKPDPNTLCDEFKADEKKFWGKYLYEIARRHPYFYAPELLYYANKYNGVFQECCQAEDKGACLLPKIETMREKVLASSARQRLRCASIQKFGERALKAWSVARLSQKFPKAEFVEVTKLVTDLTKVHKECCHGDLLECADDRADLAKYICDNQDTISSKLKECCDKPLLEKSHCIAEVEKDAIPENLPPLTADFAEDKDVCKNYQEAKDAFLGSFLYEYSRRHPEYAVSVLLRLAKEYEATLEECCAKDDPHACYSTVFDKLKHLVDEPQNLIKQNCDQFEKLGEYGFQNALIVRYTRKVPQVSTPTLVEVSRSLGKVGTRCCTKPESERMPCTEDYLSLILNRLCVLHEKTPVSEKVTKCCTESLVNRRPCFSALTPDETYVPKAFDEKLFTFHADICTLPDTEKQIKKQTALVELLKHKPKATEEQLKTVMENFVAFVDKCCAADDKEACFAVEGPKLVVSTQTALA
This section presents compounds with their documented inhibition at 5000 µM values.
Kindly answer with a numeric value in %, unit omitted.

{"compound": "O=C(O)c1cc(O)c2c(O)ccc(O)c2n1", "inhibition at 5000 µM [%]": 78.9}
{"compound": "O=C(O)c1cnc2c(c1O)C(=O)C=CC2=O", "inhibition at 5000 µM [%]": 79.9}
{"compound": "Cc1cc(O)c2c(n1)C(=O)C=CC2=O", "inhibition at 5000 µM [%]": 99.5}
{"compound": "CCOC(=O)c1cnc2c(c1O)C(=O)C=CC2=O", "inhibition at 5000 µM [%]": 96.9}

Please fill in: inhibition at 5000 µM reported for N=C(N)NN [Aminoguanidine, aminoguanidine, reference compound] = 7.5

Please fill in: inhibition at 5000 µM reported for O=C(O)c1cc(O)c2c(n1)C(=O)C=C(O)C2=O = 77.8

###

This section presents compounds with their documented inhibition at 5000 µM values.
target: bovine serum albumine (Bos taurus); assay: Inhibition of furosine formation (non-enzymatic glycosylation of BSA by glucose, furosine determined by HPLC); details: 672 h, pH 7.3, read-out: Inhibition rate (%)
Kindly answer with a numeric value in %, unit omitted.

# annotated cases, reported inhibition at 5000 µM shown
{"structure smiles": "COC(=O)c1cc(O)c2c(n1)C(=O)C=CC2=O", "reported result": 92.5}
{"structure smiles": "O=C(O)c1cc(O)c2c(n1)C(=O)C=CC2=O", "reported result": 76}
{"structure smiles": "O=C1C=CC(=O)c2c(O)cc(C(F)(F)F)nc21", "reported result": 73.4}

Please fill in: inhibition at 5000 µM reported for O=c1ccc2[n+]([O-])c3ccc(O)cc3oc-2c1 = 73.8

Please fill in: inhibition at 5000 µM reported for Oc1ccc(O)c2c(O)cc(C(F)(F)F)nc12 = 79.9

# credit: patent EP0433679A2
